Where do the numbers come from? From patent US20240270826A1.

- TESTED_ON: SARS-CoV-2 spike protein S on live virus, Wuhan (strain SARS-CoV-2/Canada/VIDO-01/2020) (SARS-CoV-2 (Wuhan), UniProt P0DTC2 14-1273)
- PROTOCOL_SUMMARY: cell-based or functional assay
MEASUREMENT_TYPE: LVNA IC50 (nM)
The response must be a number in nM with no trailing unit.

Task: Entry NRCoV2-SR01 VHH-Fc (Fc fusion, bivalent VHH-Fc) EVQLVQSGGGSVQAGGSLRLSCVASGFTFDNYAIGWFRQAPGKEREGVSCISGNGGVTIYADSVKGRFTISRDNAKNLVYLQMNSLKPEDTAVYYCAATGIRSTWSVYGCSRLAGPYDYWGQGTQVTVSS needs its LVNA IC50 filled in; supply it.
Result: 9.42
